# test details: Cytotoxicity against rat L6 cells after 72 hrs by alamar blue assay
# Type: cell-based
# condition description: read-out: MIC
measured attribute: IC50 at 72 h (µg/mL)

INSERT INTO results (molecule, qualifier, readout_number) VALUES
  ('COc1cc(C)cc2c(-c3c(O)cc(O)c4c3C[C@@H](C)N[C@@H]4C)ccc(O)c12 [KORUPENSAMINE A]', '=', 38),
  ('COc1cc(C)cc2c(-c3c(O)cc(O)c4c3C[C@@H](C)N(C)[C@@H]4C)ccc(O)c12 [ANCISTROCONGOLINE A]', '=', 90),
  ('COc1cc(O)c2c(c1-c1ccc(OC)c3c(OC)cc(C)cc13)C[C@@H](C)N(C)[C@@H]2C [ANCISTROCONGOLINE B]', '=', 33.4),
  ('COc1c(-c2c(C)cc(OC)c3c(OC)cccc23)c(O)cc2c1[C@@H](C)N[C@H](C)C2 [ANCISTROCONGOLINE D]', '=', 27.7),
  ('COc1cc(O)c(-c2ccc(OC)c3c(OC)cc(C)cc23)c2c1[C@@H](C)N(C)[C@H](C)C2 [ANCISTROCONGOLINE C]', '≥', 90);
